# test system: PARP2 L269A-mCherry (Homo sapiens, UniProt Q9UGN5, L282A)
# Sequence (Q9UGN5 other isoform, or with tags, fused parts or gaps L269A): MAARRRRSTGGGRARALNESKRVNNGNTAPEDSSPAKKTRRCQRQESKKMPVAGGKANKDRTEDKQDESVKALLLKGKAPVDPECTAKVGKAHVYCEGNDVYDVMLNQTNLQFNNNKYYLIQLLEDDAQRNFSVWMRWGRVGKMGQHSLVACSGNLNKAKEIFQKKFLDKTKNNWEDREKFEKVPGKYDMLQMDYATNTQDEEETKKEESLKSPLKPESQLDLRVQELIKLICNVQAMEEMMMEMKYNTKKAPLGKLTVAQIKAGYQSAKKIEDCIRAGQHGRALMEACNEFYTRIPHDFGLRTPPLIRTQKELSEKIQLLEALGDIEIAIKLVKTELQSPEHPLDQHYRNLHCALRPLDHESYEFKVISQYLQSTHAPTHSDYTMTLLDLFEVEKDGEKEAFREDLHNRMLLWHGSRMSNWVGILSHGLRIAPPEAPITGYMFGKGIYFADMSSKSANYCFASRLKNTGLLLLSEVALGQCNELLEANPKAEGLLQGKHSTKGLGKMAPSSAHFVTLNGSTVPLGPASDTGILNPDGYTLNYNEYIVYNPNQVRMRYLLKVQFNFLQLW
# method description: cell-based
# Assay type: cell-based
# run parameters: PARP2 L269A-mCherry stabilization EC50, live-cell CeTEAM, 24 h
test readout: EC50 (nM)
Give bare numbers, in nM.

Enquiry: Endpoint output: EC50 of O=C(c1cc(Cc2n[nH]c(=O)c3ccccc23)ccc1F)N1CC(CNC2CC2)C1 . Value?
Return: 5.94

====

# Tested on: U-2 OS cells
# run parameters: read-out: S/G2 shift EC50, shNT; control hairpin shNT, 24 h PARPi
test readout: EC50 (µM)
Numbers only, in µM.

Enquiry: Which EC50 value is on record for C[C@]1(c2nc3c(C(N)=O)cccc3[nH]2)CCCN1 ?
Return: 0.709
